Answer each item with its documented TGI.
- Tested on: EKVX NSCLC
- protocol: NCI tumour cell line growth inhibition, 48 h

| compound | recorded.result |
| --- | --- |
| O/N=C1/CCCCC1NO (centres undefined) | > 100 µM |
| Cc1cc(C(=O)NCCN(C)C)c2nc3ccccc3nc2c1 | 43.5 µM |
| O=C(c1ccccc1)c1ccc2c(c1)N=C(c1ccc(Cl)c(Cl)c1)CC(c1ccc3ccccc3c1)N2 (centres undefined) | > 100 µM |
| C[C@@H](CC(O)C(O)C(C)(C)O)C1CCC23CC12CCC1[C@@]2(C)CCC(=O)C(C)(C)C2CC(OC2OC(CO)C(O)C(O)C2O)[C@]13C (some centres undefined) | > 10 µM |

Look up TGI for the entries below, preserving their order.
1. O=C(O)CNS(=O)(=O)c1ccc(NC(=O)c2cccc([N+](=O)[O-])c2)cc1
2. Cc1cc(I)cc(CN(C)CCCCN2CCCC2)c1O
3. COc1ccc(/C=C(\C#N)c2nc(-c3cc4ccccc4oc3=O)cs2)cc1

[A]
1: > 100 µM; 2: > 100 µM; 3: > 100 µM

Look up TGI for the entries below, preserving their order.
1. Nc1ccccc1C#Cc1ccccc1C#CCCCCO
2. NC(Cc1ccccc1)C(=O)O (centres undefined)
3. COc1cc(/C=C2\N=C(c3ccccc3)N(c3ccc(C(=O)c4ccccc4)cc3N3C(=O)/C(=C/c4cc(OC)c(OC)c(OC)c4)N=C3c3ccccc3)C2=O)cc(OC)c1OC
4. Cc1cc(C#Cc2ccccc2)ccc1-n1c(/C=C/c2ccc(O)cc2)nc2ccccc2c1=O

[A]
1. 96.7 µM
2. > 100 µM
3. 76.7 µM
4. > 100 µM

Look up TGI for the entries below, preserving their order.
1. Clc1ccc(CCN2CCOCC2)c(Cl)c1
2. CN(C)c1ccc(/C=N/Nc2ccc(-c3nc4ccccc4[nH]3)cc2)cc1

[A]
> 100 µM
> 50 µM

Recorded result, `C[P+](C)(CC(F)(F)F)c1ccccc1` , TGI: > 100 µM

FYI, the data here is from PubChem BioAssay (NCI).
